# Format: in vivo, human
# condition.context: human, plasma, po, 25 mg/kg/day, CL/F (apparent total body clearance) Median +/− SD, First dose, Total VPA (n = 4); oral
attribute.measured: CL/F (mL/min/kg)
Output spec: scalar in mL/min/kg, unitless text.

Q: What CL/F value was documented for this molecule, CCCC(CCC)C(=O)O [VPA, Valproic acid] ?
Ans: 0.2

---

# Type: in vivo, human
# condition.context: human, plasma, po, 25 mg/kg/day
attribute.measured: Vd/F (L/kg)
Supply the numeric figure in L/kg, leaving out any unit text.

Q: Tell me the measured Vd/F of "CCCC(CCC)C(=O)O" , please.
Ans: 0.12

---

# Type: in vivo, human
# condition.context: human, plasma, po, CL/F (apparent total body clearance) Median +/− SD, Steady State, Free VPA (n = 4); oral
attribute.measured: CL/F

Q: Look up CL/F: CCCC(CCC)C(=O)O [VPA, Valproic acid]
Ans: 0.87 mL/min/kg

// provenance: paper PMC3064523
